Reference for the values: patent US6461997B1

Tested on: LAMPU (purple deadnettle)
Assay: Pre-emergence herbicidal activity, cool season
Format: in vivo, Lamium purpureum
Settings: lowest tested rate with 80% or greater inhibition; rates 300, 100, 30, 10 g/ha; about 14 days
From the text: Tables 5 to 8 summarize results of tests conducted as described below to determine the pre-emergence herbicidal activity, in the form of a GR80 value, of illustrative compounds of this invention. […] Compounds of the invention were typically applied at rates of 300, 100, 30, and 10 g/ha. […] Approximately 14 days after planting and treating, the plants were observed and herbicidal efficacy recorded as percent inhibition by comparison with untreated plants. […]
quantity kind: Pre-emergence activity GR80, LAMPU

Solved entries:
> print(dat)
                                   molecule                       quantity.kind    result
1  CCOC(=O)C(F)(F)S(=O)(=O)c1ncn(C(=O)N(CC)CC)n1 [Example 7]  Pre-emergence activity GR80, LAMPU   [empty]
2  C=CCN(C)C(=O)n1cnc(S(=O)(=O)C(F)(F)Br)n1 [Example 41]  Pre-emergence activity GR80, LAMPU   [empty]
3  C#CCN(C)C(=O)n1cnc(S(=O)(=O)C(F)(F)SCC)n1 [Example 54]  Pre-emergence activity GR80, LAMPU   [empty]
4  CCCN(CC)C(=O)n1cnc(S(=O)(=O)C(F)(F)Br)n1 [Example 39]  Pre-emergence activity GR80, LAMPU   30 g/ha
5  CCCN(CC)C(=O)n1cnc(S(=O)(=O)C(F)(F)C(F)(F)Br)n1 [Example 75]  Pre-emergence activity GR80, LAMPU   30 g/ha
6  C=CCN(C)C(=O)n1cnc(S(=O)(=O)C(F)(F)C(F)F)n1 [Example 65]  Pre-emergence activity GR80, LAMPU  100 g/ha

Pre-emergence activity GR80, LAMPU reported for this molecule CCN(CC)C(=O)n1cnc(S(=O)(=O)C(F)(F)SC)n1 [Example 9] : 300 g/ha

Pre-emergence activity GR80, LAMPU reported for this molecule C=CCC(F)(F)S(=O)(=O)c1ncn(C(=O)N(CC)CC)n1 [Example 17] : 100 g/ha

Pre-emergence activity GR80, LAMPU reported for this molecule CN(C(=O)n1cnc(S(=O)(=O)C(F)(F)Br)n1)C1CCCCC1 [Example 43] : 300 g/ha

Pre-emergence activity GR80, LAMPU reported for this molecule O=C(N1CCCC1)n1cnc(S(=O)(=O)C(F)(F)Br)n1 [Example 23] : 100 g/ha

Pre-emergence activity GR80, LAMPU reported for this molecule O=C(N1CCOCC1)n1cnc(S(=O)(=O)C(F)F)n1 [Example 25] : 300 g/ha

Pre-emergence activity GR80, LAMPU reported for this molecule CON(C)C(=O)n1cnc(S(=O)(=O)C(F)(F)C(F)(F)Br)n1 [Example 81] : 100 g/ha

----------
Tested on: DIGSA (large crabgrass)
Experiment: Pre-emergence herbicidal activity, warm season
Format: in vivo, Digitaria sanguinalis
Conditions: GR80 = lowest tested rate (300, 100, 30, 10 g/ha) with 80% or greater inhibition; approx. 14 days after treating; 30/21° C.
Catalogue of compounds with associated Pre-emergence activity (GR80) DIGSA
Please respond with the number in g/ha and leave the unit unwritten.

Solved entries:
> print(dat)
                           structure.string             study.target                        quantity.kind  numeric.result
1      C=CCN(C)C(=O)n1cnc(S(=O)(=O)C(F)F)n1  DIGSA (large crabgrass)  Pre-emergence activity (GR80) DIGSA             300
2  COCCN(C)C(=O)n1cnc(S(=O)(=O)C(F)(F)C(F)(F)Br)n1  DIGSA (large crabgrass)  Pre-emergence activity (GR80) DIGSA             300

Pre-emergence activity (GR80) DIGSA reported for this compound CCN(CC)C(=S)n1cnc(S(=O)(=O)C(F)(F)C(F)F)n1 : 300

Pre-emergence activity (GR80) DIGSA reported for this compound CCCN(CC)C(=O)n1cnc(S(=O)(=O)C(F)(F)C(F)F)n1 : 300

Pre-emergence activity (GR80) DIGSA reported for this compound O=C(N1CCCC1)n1cnc(S(=O)(=O)C(F)(F)Cl)n1 : 100

----------
Catalogue of molecules with associated PPI activity GR80, SASKR
System: SASKR (russian thistle)
Experiment: Pre-plant incorporated (PPI) herbicidal activity, cool season
Format: in vivo, Salsola kali
Settings: pre-plant incorporated; lowest tested rate with 80% or greater inhibition; about 14 days
Please respond with the number in g/ha and leave the unit unwritten.

Solved entries:
> print(dat)
                           structure.string             quantity.kind  numeric.result
1  C=C(CC(F)(F)S(=O)(=O)c1ncn(C(=O)N(CC)CC)n1)C[Si](C)(C)C  PPI activity GR80, SASKR             300
2  CCN(CC)C(=O)n1cnc(S(=O)(=O)C(F)(F)SCCOC)n1  PPI activity GR80, SASKR             300

PPI activity GR80, SASKR reported for this molecule CCN(CC)C(=O)n1cnc(S(=O)(=O)C(F)(F)Br)n1 : 100

PPI activity GR80, SASKR reported for this molecule CCN(CC)C(=O)n1cnc(S(=O)(=O)C(F)(F)C(F)F)n1 : 30

PPI activity GR80, SASKR reported for this molecule C=C(C)CC(F)(F)S(=O)(=O)c1ncn(C(=O)N(CC)CC)n1 : 30

PPI activity GR80, SASKR reported for this molecule CCN(CC)C(=O)n1cnc(S(=O)(=O)C(F)(F)SCC(=O)OC)n1 : 100

PPI activity GR80, SASKR reported for this molecule CCN(CC)C(=O)n1cnc(S(=O)(=O)C(F)F)n1 : 100

----------
Catalogue of compounds with associated Pre-emergence activity (GR80) PANMI
Test system: PANMI (wild proso millet)
Assay: Pre-emergence herbicidal activity, warm season
Format: in vivo, Panicum miliaceum
Conditions: GR80 = lowest tested rate (300, 100, 30, 10 g/ha) with 80% or greater inhibition; approx. 14 days after treating; 30/21° C.

Solved entries:
> print(dat)
                                   compound    result
1  CN(C(=O)n1cnc(S(=O)(=O)C(F)(F)Br)n1)C1CCCCC1  100 g/ha
2  CCCN(CC)C(=O)n1cnc(S(=O)(=O)C(F)(F)Cl)n1   30 g/ha
3  CCN(CC)C(=S)n1cnc(S(=O)(=O)C(F)(F)C(F)(F)Br)n1  300 g/ha
4    CCSC(F)(F)S(=O)(=O)c1ncn(C(=O)N(C)C)n1  300 g/ha
5  CN(C(=O)n1cnc(S(=O)(=O)C(F)(F)C(F)(F)Br)n1)c1ccccc1  300 g/ha

Pre-emergence activity (GR80) PANMI reported for this compound CCN(CC)C(=O)n1cnc(S(=O)(=O)C(F)F)n1 : 30 g/ha

Pre-emergence activity (GR80) PANMI reported for this compound CCSC(F)(F)S(=O)(=O)c1ncn(C(=O)N(C)C2CCCCC2)n1 : 100 g/ha

Pre-emergence activity (GR80) PANMI reported for this compound COCCN(C)C(=O)n1cnc(S(=O)(=O)C(F)(F)Cl)n1 : 300 g/ha

Pre-emergence activity (GR80) PANMI reported for this compound O=C(N1CCCC1)n1cnc(S(=O)(=O)C(F)(F)Cl)n1 : 100 g/ha

Pre-emergence activity (GR80) PANMI reported for this compound CCN(CC)C(=O)n1cnc(S(=O)(=O)C(F)(F)C(F)F)n1 : 30 g/ha

Pre-emergence activity (GR80) PANMI reported for this compound CN(C(=O)n1cnc(S(=O)(=O)C(F)(F)Cl)n1)C1CCCCC1 : 100 g/ha

Pre-emergence activity (GR80) PANMI reported for this compound CCN(CC)C(=O)n1cnc(S(=O)(=O)C(F)(F)SCCOC)n1 : 300 g/ha

----------
Catalogue of compounds with associated Percent inhibition STEME
Test system: STEME (common chickweed)
Assay: Pre-plant incorporated (PPI) herbicidal activity, cool season
Format: in vivo, Stellaria media
Details: weed, PPI application, 100 g/ha
Please respond with the number in % and leave the unit unwritten.

> print(dat)
                           structure.string             quantity.kind  numeric.result
1   CCN(CC)C(=O)n1cnc(S(=O)(=O)C(F)(F)Cl)n1  Percent inhibition STEME              80
2  CCN(CC)C(=O)n1cnc(S(=O)(=O)C(F)(F)SCc2ccccc2)n1  Percent inhibition STEME               0

Now turn to the next compound.
Percent inhibition STEME reported for this compound CCN(CC)C(=O)n1cnc(S(=O)(=O)C(F)(F)F)n1 : 90
